Values were extracted from PubChem BioAssay AID504697.

assay: compound autofluorescence in calcium buffer – biochemical, fluorescence, no RTF in test wells, artefact control for cardiac thin filament activator project, dose response (AID 504697); conditions: compound-only fluorescence in RTF assay buffer with Ca2+ (no RTF in test wells), artifact counterscreen;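 further: emission near 535 nm under roughly 485 nm excitation as for IANBD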
Active and inactive are the calls of the source.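 How the source made its calls: active means EC50 at or below 10 µM; inactive means EC50 above 10 µM.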
Classes used: active, inactive

compound: O=c1[nH][nH]c(C(F)(F)F)c1C=Nc1cccc(Cl)c1
class-assignment: inactive
--
compound: CC(COC(=O)c1ccccc1)(COC(=O)c1ccccc1)/[N+]([O-])=C/c1ccccc1
class-assignment: inactive
--
compound: O=c1[nH][nH]c(C(F)(F)F)c1C=NCc1ccccc1Cl
class-assignment: inactive
--
compound: CC1(C)CC(=O)C=C(Nc2ccccc2N)C1
class-assignment: inactive
--
compound: Nc1ccc2nc3c(=O)[nH]c(=S)[nH]c3nc2c1
class-assignment: active
--
compound: Cn1nc(NC(=O)C2CCC2C(=O)O)c2c(F)cccc21 (stereo not given)
class-assignment: inactive
--
compound: CCN1C(=O)/C(=C/N2CCc3ccccc32)SC1=S
class-assignment: inactive
--
compound: CC(=O)/C(C=Nc1noc(C)c1Br)=C(\C)O
class-assignment: inactive
--
compound: Cc1ccc(C)c(C(=O)CSc2n[nH]c(C(C)C)n2)c1
class-assignment: inactive
--
compound: CCN1/C(=C/c2ccc3cc(C)ccc3[n+]2CC)Sc2ccccc21
class-assignment: inactive
--
compound: CN1CCS/C1=C/C=C1\SC(=S)N(CC(=O)O)C1=O
class-assignment: active
--
compound: CC(C(=O)c1ccc(Br)cc1)[n+]1cccc2ccccc21 (stereo not given)
class-assignment: inactive
--
compound: COc1ccc(/C=N/NC(=O)c2cc(OC)c(OC)c(OC)c2)cc1CN1CCc2cc(OC)c(OC)cc2C1C (stereo not given)
class-assignment: inactive
--
compound: Cc1ccccc1-n1nnnc1SCC(C)C
class-assignment: inactive
--
compound: NC(=O)C1CCN(C(=O)c2ccc(-c3ccccc3)cc2)CC1
class-assignment: inactive
--
compound: COc1ccccc1-c1nnc(SCc2nc3ccccc3s2)n1C
class-assignment: inactive
--
compound: CNc1ccccc1C(C)(C)c1cc(C)[nH]n1
class-assignment: inactive
--
compound: CN(/N=C/c1ccc(-c2ccc([N+](=O)[O-])cc2)o1)c1ccccc1
class-assignment: inactive
--
compound: CCOC(=O)c1sc2nc(C)nc(SCC(=O)NC3CCS(=O)(=O)C3)c2c1C (stereo not given)
class-assignment: inactive
--
compound: O=C(O)c1ccc(NC(=S)NC(=O)c2ccc(-c3ccccc3)cc2)cc1
class-assignment: inactive
--
compound: COc1ccc2nc(-c3ccccn3)[nH]c2c1
class-assignment: inactive
--
compound: COc1ccc(/C=C2/SC(c3ccc(C)cc3)=NC2=O)cc1OC
class-assignment: active
--
compound: CCN(CC)C(=S)SCC(=O)c1c(C)[nH]c2ccccc12
class-assignment: inactive
--
compound: O=C1c2ccsc2SCCN1Cc1ccc(F)cc1
class-assignment: inactive
--
compound: O=C(CO/N=C/c1ccccc1OC(F)F)NCc1cccs1
class-assignment: inactive
--
compound: COc1ccc(N/C=C2\C(=O)CCc3c2oc2cc(Cl)c(O)c(Cl)c32)cc1
class-assignment: active
--
compound: N#C/C(=C\c1ccc(N2CCOCC2)o1)C(=O)NC1CCCCC1
class-assignment: inactive
--
compound: O=C(OCCN1C(=O)c2cccc3c(N4CCOCC4)ccc(c23)C1=O)c1ccc(Cl)cc1Cl
class-assignment: active
--
compound: CN(C)CCN(C)Cc1c2ccccc2c(CN(C)CCN(C)C)c2ccccc12
class-assignment: inactive
--
compound: COc1cc(OC)c(C(=O)OC(C)C(=O)Nc2cccc(C(F)(F)F)c2)cc1OC (stereo not given)
class-assignment: inactive
--
compound: O=C(O)c1ccccc1CSc1nnnn1-c1ccccc1
class-assignment: inactive
--
compound: COC(=O)c1sc(N2C(=O)C(O)=C(C(=O)c3ccc(C)o3)C2c2ccc(F)cc2)nc1C (stereo not given)
class-assignment: inactive
--
compound: CC(=O)N(C)c1ccc(C(O)(C(F)(F)F)C(F)(F)F)cc1
class-assignment: inactive
--
compound: O=C(NC1CCCCC1)c1cc2nc3c(c(C(F)(F)F)n2n1)CCCC3
class-assignment: inactive
--
compound: CC(=O)Nc1ccc(N=Cc2nc(-c3ccc(C)cc3)oc2O)cc1
class-assignment: inactive
--
compound: COc1cccc(CC(NC(C)=O)C(=O)NC2CCN(c3nc(C)cc(C)c3C#N)CC2)c1OC (stereo not given)
class-assignment: inactive
--
compound: O=C1c2ccccc2C(Nc2cccnc2)N1Cc1ccccc1Cl (stereo not given)
class-assignment: inactive
--
compound: O=[N+]([O-])c1ccc(NN=Cc2cccc3ccccc23)nc1
class-assignment: inactive
--
compound: COc1ccc(CNC(=O)c2sc(=S)n(-c3ccccc3)c2N)cc1
class-assignment: inactive
--
compound: O=C(O)c1ncc(-c2ccccc2)cn1
class-assignment: inactive
--
compound: Cc1ccc(NC(=O)CN(C)c2ccc(S(=O)(=O)N3CCCC3)cn2)cc1
class-assignment: inactive
--
compound: C=CCn1c(C)c(/C=C/c2cc[n+](C)cc2)c2ccccc21
class-assignment: active
--
compound: COc1ccccc1N1CCN(c2ccc([N+](=O)[O-])cc2Cl)CC1
class-assignment: inactive
--
compound: Cc1ccc(N=Nc2c(O)n(CN3CCOCC3)c3ccccc23)cc1
class-assignment: inactive
--
compound: N#C/C(=C\c1c[nH]c2ccccc12)C(=O)Nc1ncc(Cc2ccc(Cl)cc2Cl)s1
class-assignment: inactive
